# System: fowl roundworm (As. galli)
# EXPERIMENT: Anthelmintic test in chickens infected with fowl roundworm, compound added to feed at 250 ppm and 1,000 ppm, E.P.G. and worm count on 5th day (Test Example E2)
# Type: in vivo, Ascaridia galli
# MEASUREMENT_SETUP: 1000 ppm in feed; chicken No. 2; 5th day
READOUT_KIND: anthelmintic effect

Recorded anthelmintic effect, per entry:
C#CCON(CC#C)C(=O)CCCCCCC/C=C\CCCCCCCC [Compound E6, N,O-dipropargyl-N-oleoylhydroxylamine] = +++ (100%)
C#CCON(CC#C)C(=O)c1ccccc1Cl = +++ (100%)
C#CCON(C=O)CC#C [Compound E9, N,O-dipro- pargyl-N-formylhydroxylamine] = +++ (100%)
C#CCON(CC#C)C(=O)c1ccccc1 [Compound E7, N,O-dipropargyl-N-benzoylhydroxylamine] = +++ (100%)
C#CCON(CC#C)C(=O)CC [Compound E2, N,O-dipropargyl-N-propionylhydroxylamine] = +++ (100%)

Need anthelmintic effect for each of these molecules.
1. C#CCON(CC#C)C(=O)CCC [Compound E3, N,O-dipropargyl-N-butylylhydroxylamine]
2. C#CCON(CC#C)C(=O)CCCC [Compound E4, N,O-dipropargyl-N-valerylhydroxylamine]
3. C#CCON(CC#C)C(=O)CCCCCCCCCCC [Compound E10, N,O-dipropargyl-N-lauroylhydroxylamine]
4. C#CCON(CC#C)C(=O)CCCCCCCCCCCCCCCCC
5. C#CCON(CC#C)C(C)=O [Compound E1, N,O-dipropargyl-N-acetylhydroxylamine]
6. C#CCON(CC#C)C(=O)CCCCC [Compound E5, N,O-dipropargyl-N-caproylhydroxylamine]

+++ (100%)
+++ (100%)
+++ (100%)
+++ (100%)
+++ (100%)
+++ (100%)
